- Tested on: IGROV1 ovarian
- test details: NCI tumour cell line growth inhibition, 48 h
endpoint label: TGI

As a guide, the following entries are already answered.
smiles representation	TGI
CC(=O)OCCOCNC(=S)N/N=C/c1ccc(Br)s1	> 100 µM
Clc1ccc(N=CNc2ccc(-c3nc4ccccc4o3)cc2)cc1	> 100 µM

Then there is this molecule:
Ask: Given COc1cc(C2C(C(=O)Nc3cc(F)c(F)cc3F)=C(C)NC(C)=C2C(=O)Nc2cc(F)c(F)cc2F)ccc1O , report its TGI on IGROV1 ovarian.
Result: > 100 µM

====

- System: SN12C renal
- test details: NCI tumour cell line growth inhibition, 48 h
endpoint label: TGI

As a guide, the following entries are already answered.
smiles representation	TGI
COC(=O)c1cccc2cccc(C(=O)Nc3ccc(Cl)cc3)c12	> 100 µM
Cc1ccc(Nc2nnc(-c3ccc4c(c3)OCO4)o2)c(C)c1	> 100 µM

Then there is this compound:
Ask: Output TGI of COc1ccc2c(Oc3ccc(NC(=O)c4c(C)n(CC(C)(C)O)n(-c5ccccc5)c4=O)nc3)ccnc2c1
Result: > 100 µM
